Test system: A549 NSCLC
Test: NCI tumour cell line growth inhibition, 48 h
ATTRIBUTE_MEASURED: TGI (µM)
Report the figure in µM without appending any unit label.

>>> print(df.to_string())
                                   compound  observed_result
0  Cc1c(C(N)=O)sc2c1c(=O)n(Cc1ccccc1)c1nnc(S(=O)(=O)CC(=O)Nc3ccc(Cl)cc3)n21             6.04

Q: Specify reported TGI for the compound shown: O=C(NN1C(=O)CSC12CCC(c1ccccc1)CC2)c1[nH]c2ccc(F)cc2c1-c1ccccc1 (stereo not given)
A: 30.8

Q: Provide TGI value for the following compound: `C=C(CC)C[C@@H]1C[C@]2(C(=O)OC)c3[nH]c4ccccc4c3CCN2C1=O`
A: 32.4

Q: For the compound `Nc1cc(N)c(N=Nc2cccc3c(S(=O)(=O)O)cccc23)cc1N=Nc1cc([N+](=O)[O-])ccc1O` , report TGI.
A: 67.9

* * *

Test system: RXF 393 renal
Assay: NCI tumour cell line growth inhibition, 48 h
TGI: recorded values
Provide the reading as a plain figure in µM.

Past entries and their recorded results:
In [3]: df
Out[3]:
                           substance_smiles      tested_on  observed_result
0  COc1ccccc1Cn1[nH]c(=O)c2cc([N+](=O)[O-])ccc21  RXF 393 renal             82.6
1  Cc1ccc(-n2cc(-c3ccc(Cl)cc3)c(C#N)c2N)cc1  RXF 393 renal             23.1
2  CC#Cc1c(C#CC)c(OC)c2c(c1OC)C(=O)c1ccccc1C2=O  RXF 393 renal             55.1

Here is the next item to consider.
Q: Please look at this molecule and report its TGI: `Cc1c(C(N)=O)sc2c1c(=O)n(Cc1ccccc1)c1nnc(S(=O)(=O)CC(=O)Nc3ccc(Cl)cc3)n21`
A: 7.13

* * *

System: SF-268 CNS
Test: NCI tumour cell line growth inhibition, 48 h
*1 amine or outer side, *2 acyl side, *3 side chain or, on linkers, in order; H or OH if unused. Where a SMILES comes first, the peptide text is derived from it. [ ]: non-standard residue; d: D form. The star is where a group is joined. X31 = CC(=O)N(C)SCC(N[*:1])C(=O)[*:2]; Fmoc = O=C(OCC1c2ccccc2-c2ccccc21)*; For = O=C*
The following compounds are shown together with reported TGI values.

Q: Consider the compound Cn1nc(C(=O)N2CC(CCl)c3c2cc([N+](=O)[O-])c2ccccc32)cc1NC(=O)Nc1cc(C(=O)N2CC(CCl)c3c2cc([N+](=O)[O-])c2ccccc32)nn1C (stereo not drawn) . State its measured TGI.
A: > 100 µM

Q: Please look at this compound and report its TGI: CC(=O)N(C)SCC(NC(=O)C(Cc1ccccc1)NC(=O)OCC1c2ccccc2-c2ccccc21)C(=O)NC(Cc1ccccc1)C(=O)NC(Cc1cn(C=O)c2ccccc12)C(=O)NC(CCCCNC(=O)OCC1c2ccccc2-c2ccccc21)C(=O)NC(C(=O)NC(CSN(C)C(C)=O)C(=O)NC(C(N)=O)C(C)O)C(C)O (stereo not drawn) (Fmoc-F[X31]FW(For)K(Fmoc)T[X31]T-NH2; configuration not given here)
A: > 100 µM

Q: Supply reported TGI belonging to this compound: `COc1ccc(CN=C(N)N=C(N)N)cc1OC`
A: > 1000 µM

Q: Retrieve TGI measured for `Cc1cc(Cl)ccc1Nc1nc(C(F)(F)F)ccc1C(=O)Nc1cccc(C(F)(F)F)c1` and print it.
A: 16.6 µM

Q: Give the value of TGI reported for the following: `Nc1cc(-c2ccccc2)n(C(=O)Nc2ccc(Oc3ccccc3)cc2)n1`
A: > 100 µM

Q: Kindly indicate its recorded TGI. Item: COC(=O)C1(C)OC(C)=NC1(C(=O)OC)C(=O)OC (stereo not drawn)
A: > 100 µM

Q: Tell me measured TGI for CCCC(CCC)C(=O)OCC1(CO)C/C(=C\c2ccc(C(F)(F)F)cc2)C(=O)O1 (stereo not drawn) please.
A: 33.3 µM

Q: Supply reported TGI belonging to this compound: `CN(C)C(=S)SCC(N)=O`
A: > 100 µM
